# Test system: Danio rerio Tg(wt1b:EGFP) embryo, pronephros
# procedure.details: glomerular width (mean of left and right), fold change vs DMSO control; higher = wider glomerulus
# conditions: 25 µM; exposure: 24-48 hpf
Structures can show the parent of a compound that is named as a salt.
Hi, to clarify the labels: criterion met covers glomerular width from 1 upward, criterion not met covers anything below 1.

Use the examples below as a reference point.
molecule: C#C[C@]1(OC(C)=O)CC[C@H]2[C@@H]3CCC4=C[C@@H](OC(C)=O)CC[C@@H]4[C@H]3CC[C@@]21C [Ethynodiol diacetate]
label.class: criterion not met
//
molecule: COC(=O)Nc1nc2cc(C(=O)c3ccc(F)cc3)ccc2[nH]1
label.class: criterion not met
//
molecule: Cc1cccc(C)c1NC(=O)CN1CCN(CCCC(c2ccc(F)cc2)c2ccc(F)cc2)CC1
label.class: criterion not met

Ask | Has Clc1ccc(CSC(Cn2ccnc2)c2ccc(Cl)cc2Cl)cc1 (stereo not given) [Sulconazole nitrate] a recorded glomerular width greater than or equal to 1?
Reply | criterion not met

Ask | And then c1ccc(CN(CC2=NCCN2)c2ccccc2)cc1 [Antazoline hydrochloride] , what is it?
Reply | criterion met

Ask | Now give it for C=CC[N@@+]12CC[C@@]34c5ccccc5N5/C=C6/[C@H]7C[C@H]8[C@@]9(CC[N@@+]8(CC=C)C/C7=C/CO)c7ccccc7N(/C=C(/[C@@H](C[C@@H]31)/C(=C\CO)C2)[C@H]54)[C@@H]69 [Alcuronium chloride] too.
Reply | criterion met

Ask | Entry to check: `CCCCNc1ccc(C(=O)OCCN(C)C)cc1`
Reply | criterion not met

Ask | Now this one: CC(C)(Oc1ccc(C2CC2(Cl)Cl)cc1)C(=O)O (stereo not given) [Ciprofibrate]
Reply | criterion not met

Ask | Continue with `CS(=O)(=O)c1ccc([C@@H](O)[C@@H](CO)NC(=O)C(Cl)Cl)cc1`
Reply | criterion met

###

What glomerular separation was measured for each of the following?
# Test system: Danio rerio Tg(wt1b:EGFP) embryo, pronephros
# procedure.details: glomerular separation, fold change vs DMSO control; higher = glomeruli further apart (abnormal)
# conditions: 25 µM; exposure: 24-48 hpf
Counter-ions that a name gives are not always drawn.
Give bare numbers.

compound: CC(=O)O[C@H]1C[C@@]2(C)[C@@H](C[C@@H](O)[C@H]3[C@@]4(C)CC[C@@H](O)[C@@H](C)[C@@H]4CC[C@@]32C)/C1=C(\CCC=C(C)C)C(=O)O [Fusidic acid sodium salt]
glomerular separation: 0.853
//
compound: C[C@]12CC[C@@H]3c4ccc(O)cc4C[C@@H](CCCCCCCCC[S+]([O-])CCCC(F)(F)C(F)(F)F)[C@H]3[C@@H]1CC[C@@H]2O (some centres not stated) [Fulvestrant]
glomerular separation: 1.22
//
compound: N#Cc1ccc(C(c2ccc(C#N)cc2)n2cncn2)cc1 [Letrozole]
glomerular separation: 1.1

Below is a list of compounds. For each, state its recorded glomerular separation.
1. Nc1nc(CC(=O)Nc2ccc(CCNC[C@H](O)c3ccccc3)cc2)cs1 [Mirabegron]
2. C[C@]12CC[C@@H]3c4ccc(O)cc4CC[C@H]3[C@@H]1CCC2=O [Estrone]
3. CCCCOc1cc(C(=O)NCCN(CC)CC)c2ccccc2n1 [Dibucaine]
4. CCN(CC)C(=O)/C(C#N)=C/c1cc(O)c(O)c([N+](=O)[O-])c1 [Entacapone]

Reply |
1. 0.841
2. 0.922
3. 1.35
4. 1.88

Hi, could you look up glomerular separation for each item in my list?
1. CN(C)CCN(Cc1ccc(Cl)cc1)c1ccccn1 [Chloropyramine hydrochloride]
2. CCn1cc(C(=O)O)c(=O)c2cc(F)c(N3CCN(C)CC3)cc21 [Pefloxacine]
3. CCOC(=O)[C@H](CCc1ccccc1)N[C@H]1CCc2ccccc2N(CC(=O)O)C1=O [Benazepril hydrochloride]
4. Cc1ccc(C(=O)c2ccc(CC(=O)O)n2C)cc1 [Tolmetin sodium salt dihydrate]
5. CN1C2CCCC1CC(NC(=O)c1nn(C)c3ccccc13)C2 (configuration not stated) [Granisetron]
6. Cc1c(F)c(N2CCNC(C)C2)cc2c1c(=O)c(C(=O)O)cn2C1CC1 (configuration not stated) [Grepafloxacin]
7. CC(=O)OCC(=O)[C@@]1(O)CC[C@H]2[C@@H]3CCC4=CC(=O)C=C[C@]4(C)[C@@]3(F)[C@@H](O)C[C@@]21C [Isoflupredone acetate]

Reply |
[0.981, 0.997, 0.73, 1.55, 0.791, 0.897, 1.22]

Look up glomerular separation for the entries below, preserving their order.
1. CCN(Cc1ccncc1)C(=O)C(CO)c1ccccc1 (configuration not stated) [Tropicamide]
2. Nc1ccc(S(=O)(=O)Nc2ncccn2)cc1 [Sulfadiazine]
3. C=CC(N)CCC(=O)O (configuration not stated) [Vigabatrin hydrochloride]

Reply |
[0.966, 0.947, 0.956]
